Below is a list of entries, each paired with its recorded melting point value.

Below, 6 molecules whose answers are already recorded.
Query :: Give the reported value of melting point for this record: CCOP(=O)(CCCn1cc(CN2C(=O)c3cccc4cccc(c34)C2=O)nn1)OCC [Compound 14c]
Result :: 131 to 132 °C

Query :: Give the reported value of melting point for this record: CCOP(=O)(CNC(=O)Cn1cc(CN2C(=O)c3cccc4cccc(c34)C2=O)nn1)OCC [Compound 14i]
Result :: 170 to 171 °C

Query :: Give the reported value of melting point for this record: CCOP(=O)(CNC(=O)Cn1cc(CN2C(=O)c3cccc4c(Br)ccc(c34)C2=O)nn1)OCC [Compound 15i]
Result :: 173 to 174 °C

Query :: Give the reported value of melting point for this record: CCOP(=O)(CCOCCn1cc(CN2C(=O)c3cccc4cc(N)cc(c34)C2=O)nn1)OCC [Compound 17h]
Result :: 180 to 183 °C

Query :: Give the reported value of melting point for this record: CCOP(=O)(CCn1cc(CN2C(=O)c3cccc4cccc(c34)C2=O)nn1)OCC [Compound 14b]
Result :: 63 to 64 °C

Query :: Give the reported value of melting point for this record: CCOP(=O)(OCC)C(O)Cn1cc(CN2C(=O)c3cccc4cc([N+](=O)[O-])cc(c34)C2=O)nn1 (centres unmarked) [Compound 16e]
Result :: 212 to 213 °C

Further cases:
Query :: Give the reported value of melting point for this record: CCOP(=O)(COCCn1cc(CN2C(=O)c3cccc4cccc(c34)C2=O)nn1)OCC [Compound 14g]
Result :: 154 to 155 °C

Query :: Give the reported value of melting point for this record: CCOP(=O)(CC(O)Cn1cc(CN2C(=O)c3cccc4cc([N+](=O)[O-])cc(c34)C2=O)nn1)OCC (centres unmarked) [Compound 16f]
Result :: 176 to 177 °C
